Cited source for all entries: patent US9765092B2

Molecular target: UniProt:P17752
Assay: Biochemical in vitro assay using fluorescence readout (TPH1 inhibition)
Settings: human TPH1, fluorescence readout
Measured property: IC50 (nM)

INSERT INTO results (molecule, measured_property, quantitative_readout) VALUES
  ('Cc1ccc(Cl)c(OCC(=O)N2CCc3nc4sccn4c3C2c2cc3cccnc3s2)c1 (stereo not drawn)', 'IC50', 43),
  ('Cc1nn2c3c(nc2s1)CCN(C(=O)COc1ccc(N2CCOCC2)nc1Cl)C3c1cnc(C(=O)N(C)C)s1 (stereo not drawn)', 'IC50', 6),
  ('CCc1nc(NS(C)(=O)=O)ccc1OCC(=O)N1CCc2nc3sc(C)nn3c2C1c1sc(C)nc1C (stereo not drawn)', 'IC50', 11),
  ('COC(=O)c1cnc(C2c3c(nc4sc(C)nn34)CCN2C(=O)COc2ccc(C(F)(F)F)cc2Cl)s1 (stereo not drawn)', 'IC50', 40),
  ('CCc1nc(C)ccc1OCC(=O)N1CCc2nc3sc(C)nn3c2C1c1ccc(Cl)cc1F (stereo not drawn)', 'IC50', 13),
  ('COc1ccc(C2c3c(nc4sccn34)CCN2C(=O)COc2ccc(CN3CCOCC3)cc2Cl)c(F)c1 (stereo not drawn)', 'IC50', 5),
  ('Cc1nn2c3c(nc2s1)CCN(C(=O)COc1ccc(NS(C)(=O)=O)nc1Cl)C3c1sc(C(F)(F)F)nc1C (stereo not drawn)', 'IC50', 20),
  ('Cc1nn2c3c(nc2s1)CCN(C(=O)COc1ccc(C(=O)N(C)C)nc1Cl)C3c1ccc(Cl)cc1F (stereo not drawn)', 'IC50', 18),
  ('CS(=O)(=O)Nc1ccc(OCC(=O)N2CCc3nc4sc(C(F)F)nn4c3[C@@H]2c2ccc(Cl)cc2F)c(Cl)n1', 'IC50', 12),
  ('Cc1ccc(OCC(=O)N2CCc3nc4sccn4c3C2c2cccnc2F)cc1 (stereo not drawn)', 'IC50', 52),
  ('Cc1nn2c3c(nc2s1)CCN(C(=O)COc1ccc(N(C)C)nc1Cl)C3c1cnc(OC(F)F)cc1C (stereo not drawn)', 'IC50', 58),
  ('Cc1ccc(OCC(=O)N2CCc3nc4sccn4c3C2c2nc3ccccc3s2)cc1 (stereo not drawn)', 'IC50', 26),
  ('CNC(=O)c1ccc(C2c3c(nc4sc(C)nn34)CCN2C(=O)COc2ccc(N3CCOCC3)nc2Cl)o1 (stereo not drawn)', 'IC50', 11),
  ('Cc1nn2c3c(nc2s1)CCN(C(=O)COc1ccc(C(=O)N(C)C2CC2)nc1Cl)C3c1ccc(Cl)cc1F (stereo not drawn)', 'IC50', 16),
  ('Cc1nn2c3c(nc2s1)CCN(C(=O)COc1cccc2c1ccn2C)C3c1ccc(Cl)cc1F (stereo not drawn)', 'IC50', 15);

###

Below: a set of entries, each annotated with reported IC50.
Molecular target: human TPH1 (Homo sapiens (Human))
Sequence (P17752 whole entry): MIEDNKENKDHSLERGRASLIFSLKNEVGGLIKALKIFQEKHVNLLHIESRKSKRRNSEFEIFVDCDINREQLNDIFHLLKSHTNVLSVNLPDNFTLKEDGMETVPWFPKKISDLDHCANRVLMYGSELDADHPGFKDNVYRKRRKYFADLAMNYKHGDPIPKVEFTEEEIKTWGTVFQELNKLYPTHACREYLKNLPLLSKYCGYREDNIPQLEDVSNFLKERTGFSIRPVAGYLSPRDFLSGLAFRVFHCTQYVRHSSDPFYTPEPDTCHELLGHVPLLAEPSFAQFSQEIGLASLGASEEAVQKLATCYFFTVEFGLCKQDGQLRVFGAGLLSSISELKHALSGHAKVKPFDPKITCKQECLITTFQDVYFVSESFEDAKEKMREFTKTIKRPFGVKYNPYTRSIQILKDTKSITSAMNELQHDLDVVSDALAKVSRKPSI
Test: Biochemical in vitro assay using fluorescence readout (TPH1 inhibition)
Details: human TPH1, fluorescence readout
Measured property: IC50 (nM)

INSERT INTO measurements (compound, result_units, quantitative_readout) VALUES
  ('Cc1ccc([C@H]2c3c(nc4sc(C)nn34)CCN2C(=O)COc2ccc(NS(C)(=O)=O)nc2Cl)c(F)c1', 'nM', 8),
  ('CCc1cc(Cl)ccc1OCC(=O)N1CCc2nc3sccn3c2C1c1c(C)noc1C (stereo not shown)', 'nM', 135),
  ('CN(C)C(=O)c1ccc(OCC(=O)N2CCc3nc4sccn4c3C2c2sccc2F)c(Cl)n1 (stereo not shown)', 'nM', 5),
  ('CCc1nc(NS(C)(=O)=O)ccc1OCC(=O)N1CCc2nc3sc(CF)nn3c2C1c1sc(C)nc1C (stereo not shown)', 'nM', 7),
  ('CCN(CC)C(=O)c1cc(F)c(C2c3c(nc4sc(C)nn34)CCN2C(=O)COc2ccc(NS(C)(=O)=O)nc2Cl)s1 (stereo not shown)', 'nM', 21),
  ('O=C(COc1ccc(CN2CCOCC2)nc1Cl)N1CCc2nc3sccn3c2C1c1cnn(-c2ccccc2)c1 (stereo not shown)', 'nM', 28),
  ('Cc1nn2c3c(nc2s1)CCN(C(=O)COc1ccc(NS(C)(=O)=O)cc1Cl)C3c1ncc(Cl)cc1F (stereo not shown)', 'nM', 13);
